Test: compound effects on differentiated 3T3-L1 adipocyte viability – cell-based, 3T3-L1 adipocytes, calcein-AM fluorescence, 48 h, basal, profiling panel (AID 1163); further: test concentration not given here
Conditions: 3T3-L1 adipocytes viability, higher = more signal
Lab note: compare z-score with 0.06, writing True if less and False if equal or more.

compound	cat
CCOC(=O)C[C@H]1[C@H](OC(=O)c2ccc(-c3ccccc3)cc2)[C@@H](NC(=O)c2ccccc2)c2cc(OCCCO)ccc2N1C(=O)c1ccc2ccccc2n1	True
C[N+](C)(C)CCCC[C@@H]1NC(=O)[C@@H]2C[C@H](C(=O)NCCCCCN)[C@H](c3ccc(O)cc3)N2C1=O	False
C=CC[C@@]1(C(=O)N2CCCCC2)N=C(c2ccc(OCCCO)cc2)O[C@@H]1c1ccccc1CN=[N+]=[N-]	False

Task item: Given the entry `COCC(=C=CC[C@H](O)c1ccccc1OCCO)CCO` , would its reported z-score be below 0.06?
Reply: True

Task item: Given the entry `COC(=O)[C@@]1(Cc2ccc(OC)cc2)[C@H]2c3cc(C(=O)N4CCCC4)n(CCCNc4ncc(C(F)(F)F)cc4Cl)c3C[C@H]2CN1C(=O)c1ccccc1` , would its reported z-score be below 0.06?
Reply: True

Task item: Given the entry `COc1ccc(C#Cc2ccc3c(c2)[C@]2(C(=O)N3)[C@H](c3ccc(O)cc3)N3[C@H](c4ccccc4)[C@H](c4ccccc4)OC(=O)[C@H]3[C@@H]2C(=O)N2CCc3cc(OC)c(OC)cc3C2)cc1` , would its reported z-score be below 0.06?
Reply: True

Task item: Given the entry COc1ccc(C(O)C2C=CC3C(=O)N(C)C(=O)C3N2NC(=O)OC(C)(C)C)c2ccccc12 (stereo unspecified) , would its reported z-score be below 0.06?
Reply: True

Task item: Given the entry `CCCNC(=O)[C@@H]1c2ccccc2C(=O)N(Cc2ccccc2OC)[C@H]1c1ccc(CO)cc1` , would its reported z-score be below 0.06?
Reply: True

Task item: Given the entry CCC(CC)C(O)C1C=CC2C(=O)N(c3ccccc3)C(=O)C2N1Nc1ccccc1 (stereo unspecified) , would its reported z-score be below 0.06?
Reply: True

Task item: Given the entry CC(c1ccccc1)C(O)C1C=CC2C(=O)N(C)C(=O)C2N1NC(=O)OC(C)(C)C (stereo unspecified) , would its reported z-score be below 0.06?
Reply: False

Task item: Given the entry COc1ccc(C(O)C2C=CC3C(=O)N(C)C(=O)C3N2N(c2ccccc2)c2ccccc2)c2ccccc12 (stereo unspecified) , would its reported z-score be below 0.06?
Reply: True

Task item: Given the entry `C=C(CCCC)/C(=C/C[C@H](OC(=O)c1ccncc1)c1ccc(OCCO)cc1)c1cc(C(=O)OC)ccc1OC` , would its reported z-score be below 0.06?
Reply: False

Task item: Given the entry `O=C(CS)NCCCCCNC(=O)[C@@H]1C[C@@H]2C(=O)NCC(=O)N2[C@@H]1c1ccc(O)cc1` , would its reported z-score be below 0.06?
Reply: False

Task item: Given the entry `COc1ccc([C@H]2C[C@H]3C(I)=C[C@@H]2C(=O)[C@]32CO2)cc1` , would its reported z-score be below 0.06?
Reply: False

Task item: Given the entry `COC(=O)[C@]1(CCC(=O)OC(C)(C)C)N=C(c2ccc(OCCCO)cc2)O[C@@H]1c1ccccc1` , would its reported z-score be below 0.06?
Reply: False

----------
I'd appreciate it if you could supply composite z-score values for the items below.
Molecular target: Follistatin (Homo sapiens)
Assay: FST protein binding to printed compounds – biochemical, small-molecule microarray, 635/667 nm fluorescence, primary screen (AID 1132)
Details: 635 nm fluorescence, higher = more signal
Give bare numbers.

compound	measured value
COCCCNC(=O)[C@@H]1c2ccccc2C(=O)N(Cc2ccccc2OC)[C@H]1c1ccc(CO)cc1	0.832
COc1cc2c(cc1O)C(c1cccs1)N(Cc1cccc(OC(F)(F)F)c1)CC2 (configuration not stated)	0.457
CC(C)[C@@H](C(=O)O)n1cc(C2(O)CCCCC2)nn1	0.486
CC[C@@H]1C=C(C(=O)O)[C@H](c2cccc3ccccc23)N1S(=O)(=O)c1ccc(C)cc1	0.414
COc1ccccc1CN1C(=O)c2ccccc2[C@@H](C(=O)NCc2ccccc2)[C@@H]1c1ccc(CO)cc1	0.211
C[N+](C)(C)CCCC[C@@H]1NC(=O)[C@@H]2C[C@H](C(=O)NCCCCCCNC(=O)CS)[C@H](c3ccc(O)cc3)N2C1=O	0.0054
CC(C)Cc1ccc(CN2CC[C@@H](N)C2)cc1	-0.304
C=C[C@H](C)[C@@H](OC(=O)Nc1ccc(SC)cc1)c1ccc(O)c2ccccc12	1.37
COCC(=C=CC[C@H](O)c1cccc(OCCO)c1)CCO	1.32
CN(C)CCCCNC(=O)[C@@H]1C[C@@H]2C(=O)N[C@@H](CCCCN)C(=O)N2[C@@H]1c1ccc(O)cc1	1.34

For every item below, please supply its composite z-score.
1. CC1CC/C=C\[C@H]2OC34C=CCN(Cc5ccccc5)C(=O)[C@H]3N(C(C)CO)C(=O)[C@@H]4C2C(=O)O1 (some centres not stated)
2. CC(CO)N1C(=O)[C@@H]2C3C(=O)OCCC/C=C\[C@H]3OC23C=CCN(CCN2CCOCC2)C(=O)[C@@H]13 (some centres not stated)

Reply:
[0.462, 0.205]

For every item below, please supply its composite z-score.
1. COc1ccc(C(O)C2C=CC3C(=O)N(C)C(=O)C3N2NC(=O)OC(C)(C)C)c2ccccc12 (configuration not stated)
2. C[N+](C)(C)CCCC[C@@H]1NC(=O)[C@H]2C[C@@H](C(=O)NCCCCCCNC(=O)CS)[C@@H](c3ccc(O)cc3)N2C1=O
3. CN1C(=O)C2C=CC(C(O)C=Cc3ccc([N+](=O)[O-])cc3)N(Nc3ccccc3)C2C1=O (configuration not stated)
4. CN(C)CCCCCCNC(=O)[C@@H]1C[C@@H]2C(=O)N[C@@H](CCCC[N+](C)(C)C)C(=O)N2[C@@H]1c1ccc(O)cc1
5. CO[C@H]1O[C@H](CO)[C@@H](OC(=O)Nc2ccc(Br)cc2)[C@@H]2OC(=O)[C@H](Cc3cccc(Br)c3)C/C=C/C[C@@H](Cc3cccc(Br)c3)C(=O)O[C@@H]12
6. C=C(/C(=C/C[C@H](OC(C)=O)c1ccc(OCCO)cc1)c1cc(C(=O)OC)ccc1OC)C(C)C
7. COC(=O)C(CC#Cc1ccc2c(c1)[C@]1(C(=O)N2)[C@H](c2ccccc2OCCO)N2[C@H](c3ccccc3)[C@H](c3ccccc3)OC(=O)[C@H]2[C@@H]1C(=O)O)C(=O)OC

Reply:
1: 0.832; 2: 1.36; 3: 1.1; 4: 0.82; 5: 0.585; 6: 1.13; 7: 0.206

For every item below, please supply its composite z-score.
1. CCCCCCc1nc(-c2ccc(-c3ccc(Cl)c(Cl)c3)o2)cc2c1[Si](C(C)C)(C(C)C)O[C@H]2c1ccccc1
2. C=CC[C@]1(C(N)=O)COC(c2ccc(OCCCO)cc2)=N1
3. CN(C)CCCCCCNC(=O)[C@@H]1C[C@@H]2C(=O)N3CCC[C@H]3C(=O)N2[C@@H]1c1ccc(O)cc1
4. Cc1ccc(S[C@]2(C(=O)NCC(C)C)CC(=O)N(Cc3cc(C(F)(F)F)cc(C(F)(F)F)c3)[C@@H]2c2ccc(CO)cc2)cc1
5. CN1CCC(CCCO)=CC1c1cccs1 (configuration not stated)
6. O=c1cccc(-c2ccccc2Cl)o1
7. COCCCNC(=O)[C@@H]1c2ccccc2C(=O)N(Cc2ccccc2)[C@H]1c1ccc(CO)cc1

Reply:
1: -0.348; 2: 0.786; 3: 1.47; 4: -0.0643; 5: -0.0163; 6: 0.0968; 7: 0.928

For every item below, please supply its composite z-score.
1. OCC1C=C(/C=C/c2ccccc2)CN1Cc1ccccc1Br (configuration not stated)
2. CCCCCN1CC=CC23O[C@@H]4C=CCOC(=O)[C@@H]4[C@H]2C(=O)N(C(C)CO)[C@@H]3C1=O (some centres not stated)
3. NC(=O)[C@@]1(Cc2ccccc2)N=C(c2ccc(OCCCO)cc2)O[C@H]1c1ccccc1
4. COC(=O)[C@@]1(Cc2ccccc2)[C@H]2c3cc(C(=O)N4CCCC4)n(Cc4ccc(O)c(OC)c4)c3C[C@H]2CN1C(=O)c1ccccc1
5. COc1ccc(-c2cc3c(c(Cc4ccccc4)n2)[Si](C(C)C)(C(C)C)OC3)cn1
6. CCCNC(=O)[C@@]1(Sc2ccc(C)cc2)CC(=O)N(Cc2ccccc2C(F)(F)F)[C@@H]1c1ccc(CO)cc1I

Reply:
1. 1.29
2. -1.12
3. 0.62
4. 0.284
5. -0.108
6. 1.36

----------
I'd appreciate it if you could supply composite z-score values for the items below.
Test: probe aInhba binding on compound microarray – biochemical, small-molecule microarray, 635/667 nm fluorescence, primary screen (AID 1148);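 further: score merges 667nm spot fluorescence with signal-to-noise for antibody binding to printed compounds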
Details: higher = more signal
Give bare numbers.

Below: 2 compounds and their reported composite z-score.
compound	composite z-score
O=C(CS)NCCCCCNC(=O)[C@H]1C[C@H]2C(=O)NCC(=O)N2[C@H]1c1ccc(O)cc1	-0.264
CN1CCC(CCCO)=CC1c1cccs1 (centres undefined)	-0.128

For every item below, please supply its composite z-score.
1. COc1ccc([Si](C)(C)[C@@H]2[C@@H](CC(=O)N3Cc4ccccc4C[C@H]3CO)O[C@]3(C(=O)N(Cc4cccc(N5CCC5=O)c4)c4ccccc43)[C@H]2C)cc1
2. COc1ccc(C#Cc2ccc3c(c2)[C@]2(C(=O)N3)[C@H](c3ccc(O)cc3)N3[C@H](c4ccccc4)[C@H](c4ccccc4)OC(=O)[C@H]3[C@@H]2C(=O)N2CCc3cc(OC)c(OC)cc3C2)cc1

Reply:
1. -0.0463
2. -0.0521
